This listing pairs compounds with measured CC50.
procedureDetails: in vitro
runConditions: dog

INSERT INTO results (compound, measuredattribute, result) VALUES
  ('O=C(O)c1cc2ccccc2c(Cc2c(O)c(C(=O)O)cc3ccccc23)c1O', 'CC50', '> 100 µM');

API: the following record is the query input.
Give reported CC50 value for O=C(O)[C@H]1C2CCC(CC2)[C@@H]1Nc1nc(-c2c[nH]c3ncc(F)cc23)ncc1F [VX-787, reference compound] > 100 µM
